- Tested Target: methemoglobin (metHb, human hemoglobin, Fe(III) form) (Homo sapiens, UniProt P68871+P69905)
- Sequence (P69905 2-142): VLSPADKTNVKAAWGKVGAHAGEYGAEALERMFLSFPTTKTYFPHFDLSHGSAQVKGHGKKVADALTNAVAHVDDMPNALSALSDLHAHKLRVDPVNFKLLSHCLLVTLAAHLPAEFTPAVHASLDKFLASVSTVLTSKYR
- Sequence (P68871 2-147): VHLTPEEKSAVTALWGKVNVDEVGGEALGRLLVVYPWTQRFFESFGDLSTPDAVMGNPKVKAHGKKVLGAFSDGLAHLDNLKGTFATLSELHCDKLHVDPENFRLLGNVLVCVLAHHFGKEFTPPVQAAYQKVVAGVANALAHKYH
pKd: −log10 of the molar value.
Parameter Measured: pKd

{"columns": ["Compound", "Recorded Result"],
 "data": [
  ["O=NO [nitrite]", 2.91]
]}
